Data origin: the supplement of paper PMC13207355

Tested on: E21 (patient-derived glioblastoma stem cells of mesenchymal subtype)
test: surviving fraction (nuclei count normalised to DMSO); higher = more cells surviving (less toxic)
measurement.parameters: 3000 nM; exposure time: 72 h
Structures can show the parent of a compound that is named as a salt.
Overview of recorded surviving fraction for various compounds
value.kind: surviving fraction

CC(=O)[C@]1(O)Cc2c(O)c3c(c(O)c2[C@@H](O[C@H]2C[C@H](N)[C@H](O)[C@H](C)O2)C1)C(=O)c1ccccc1C3=O | 0.0457
CNCCc1ccccn1 [Betahistine mesylate] | 1.17
CCN(CC)CCCC(C)Nc1c2ccc(Cl)cc2nc2ccc(OC)cc12 (stereo not drawn) [Quinacrine dihydrochloride hydrate] | 0.71
COc1cc(N)c(Cl)cc1C(=O)NC1CCN(CCCOc2ccc(F)cc2)CC1OC (stereo not drawn) [Cisapride] | 0.846
CCn1cc(C(=O)O)c(=O)c2cc(F)c(N3CCNCC3)nc21 | 0.968
C[C@@]12C(=O)OC(=O)[C@]1(C)[C@H]1CC[C@@H]2O1 | 0.00297
CCCCCC[C@H]1C(=O)O[C@H](C)[C@H](NC(=O)c2cccc(NC=O)c2O)C(=O)O[C@@H](C)[C@@H]1OC(=O)CC(C)C [Antimycin A] | 0.494
Cn1ncnc1[C@H]1c2n[nH]c(=O)c3cc(F)cc(c23)N[C@@H]1c1ccc(F)cc1 | 0.292

* * *

Test system: E21;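 further: nuclei counted by high-content imaging of Hoechst-stained cells in laminin-coated 384-well plates, relative to 0.1% DMSO vehicle wells, with staurosporine as cell-death control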
test: surviving fraction (nuclei count normalised to DMSO); higher = more cells surviving (less toxic)
measurement.parameters: 3000 nM; exposure time: 72 h
Could you please classify the records by surviving fraction using these ranges: low = under 0.4, mid = from 0.4 up to 0.9, high = 0.9 and over

Nc1ncn([C@@H]2O[C@H](CO)[C@@H](O)[C@H]2O)c(=O)n1 | mid
Nc1ncn(C2OC(CO)C(O)C2O)c(=O)n1 (centres undefined) | mid
CC1=C(/C=C/C(C)=C/C=C/C(C)=C/C(=O)Nc2ccc(O)cc2)C(C)(C)CCC1 [Retinoic acid p-hydroxyanilide] | low
S=c1[nH]cnc2nc[nH]c12 | high
O=C(C1CC1)N1CC[C@@H](Cc2n[nH]c(=O)n2-c2ccc(-c3ccc4occc4c3)cc2)C1 | mid
Cc1c2ccncc2c(C)c2c1[nH]c1ccccc12 | mid

* * *

Tested on: E57 (patient-derived glioblastoma stem cells of mesenchymal subtype);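 further: cell Painting imaging in 384-well plates, CellProfiler features reduced to at least 20 principal components, Euclidean distance versus same-plate DMSO vehicle wells (0.1% v/v), median over six images per well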
test: phenotypic distance (Euclidean, principal components) from DMSO controls (arbitrary units); higher = stronger morphological change
measurement.parameters: 3000 nM; exposure time: 72 h
Where a name gives a salt, the structure may show the parent alone.
Overview of recorded phenotypic distance for various molecules
value.kind: phenotypic distance

Cc1ccc(S(=O)(=O)/C=C/C#N)cc1 [Bay 11-7082] | 8.7
CCC(C)n1ncn(-c2ccc(N3CCN(c4ccc(OCC5COC(Cn6cncn6)(c6ccc(Cl)cc6Cl)O5)cc4)CC3)cc2)c1=O (stereo unspecified) [Itraconazole] | 6.42
CC1(C(=O)O)C2CCC(O2)C1(C)C(=O)O (stereo unspecified) [Cantharidic Acid] | 1.72
CN[C@@H]1[C@@H](O)[C@@H](O[C@@H]2[C@@H](O)[C@H](O[C@H]3OC(CN)=CC[C@H]3N)[C@@H](N)C[C@H]2N)OC[C@]1(C)O [Sisomicin sulfate] | 0.686
CCC1=C[C@@H]2CN(C1)Cc1c([nH]c3ccccc13)[C@@](C(=O)OC)(c1cc3c(cc1OC)N(C)[C@H]1[C@@](O)(C(=O)OC)[C@H](OC(C)=O)[C@]4(CC)C=CCN5CC[C@]31[C@@H]54)C2 [Vinorelbine Tartrate] | 6.16
COc1cccc2c1C(=O)c1c(O)c3c(c(O)c1C2=O)C[C@@](O)(C(C)=O)C[C@@H]3O[C@H]1C[C@H](N)[C@H](O)[C@H](C)O1 [Daunorubicin hydrochloride] | 7.19
